Test: Cytotoxicity against human K562 cells incubated for 72 hrs by CellTiter 96 aqueous one solution reagent based assay
Type: functional, cell-based

record smiles	IC50 (µmol)
COc1cccc2c1C(=O)c1c(O)c3c(c(O)c1C2=O)C[C@@](O)(C(=O)CO)C[C@@H]3O[C@H]1C[C@H](N)[C@H](O)[C@H](C)O1	0.047
CCOC(=O)/C1=C/N2CC(CC)=C[C@@H](C2)C[C@](C(=O)OC)(c2cc3c(cc2OC)N(C)[C@H]2[C@@](O)(C(=O)OC)[C@H](OC(C)=O)[C@]4(CC)C=CCN5CC[C@]32[C@@H]54)c2[nH]c3ccccc3c2C1	0.1
C#Cc1ccc2[nH]c3c(c2c1)C/C(C(=O)OC)=C\N1CC(CC)=C[C@@H](C1)C[C@]3(C(=O)OC)c1cc2c(cc1OC)N(C)[C@H]1[C@@](O)(C(=O)OC)[C@H](OC(C)=O)[C@]3(CC)C=CCN4CC[C@]21[C@@H]43	0.6
CCC1=C[C@H]2CN(/C=C(/C(=O)OCc3ccccc3)Cc3c([nH]c4ccccc34)[C@@](C(=O)OC)(c3cc4c(cc3OC)N(C)[C@H]3[C@@](O)(C(=O)OC)[C@H](OC(C)=O)[C@]5(CC)C=CCN6CC[C@]43[C@@H]65)C2)C1	0.1
CCC1=C[C@H]2CN(C1)C1=C(Cc3c([nH]c4ccccc34)[C@@](C(=O)OC)(c3cc4c(cc3OC)N(C)[C@H]3[C@@](O)(C(=O)OC)[C@H](OC(C)=O)[C@]5(CC)C=CCN6CC[C@]43[C@@H]65)C2)C(=O)N(CC(C)C)C1=O	0.45
CCOC(=O)[C@@H]1Cc2c([nH]c3ccccc23)[C@@](C(=O)OC)(c2cc3c(cc2OC)N(C)[C@H]2[C@@](O)(C(=O)OC)[C@H](OC(C)=O)[C@]4(CC)C=CCN5CC[C@]32[C@@H]54)C[C@H]2C=C(CC)CN(C2)C1	0.08
CCC1=C[C@H]2CN(/C=C(/C(=O)OC)Cc3c([nH]c4ccc(Br)cc34)[C@@](C(=O)OC)(c3cc4c(cc3OC)N(C)[C@H]3[C@@](O)(C(=O)OC)[C@H](OC(C)=O)[C@]5(CC)C=CCN6CC[C@]43[C@@H]65)C2)C1	0.5
CCC1=C[C@H]2CN(C1)/C(C(=O)NC(C)C)=C(/C(=O)OC)Cc1c([nH]c3ccccc13)[C@@](C(=O)OC)(c1cc3c(cc1OC)N(C)[C@H]1[C@@](O)(C(=O)OC)[C@H](OC(C)=O)[C@]4(CC)C=CCN5CC[C@]31[C@@H]54)C2	0.04

----------
Reported values of IC50 for individual entries
Assay: Cytotoxicity against doxorubicin-resistant human K562R cells incubated for 72 hrs by CellTiter 96 aqueous one solution reagent based assay
Type: functional, cell-based
Details: k-562r
measure name: IC50 (µmol)

record smiles	measured result
CCC1=C[C@H]2CN(C1)C1=C(Cc3c([nH]c4ccccc34)[C@@](C(=O)OC)(c3cc4c(cc3OC)N(C)[C@H]3[C@@](O)(C(=O)OC)[C@H](OC(C)=O)[C@]5(CC)C=CCN6CC[C@]43[C@@H]65)C2)C(=O)N(CC(C)C)C1=O	2.5
CCC1=C[C@H]2CN(/C=C(/C(=O)OC)Cc3c([nH]c4ccc(Br)cc34)[C@@](C(=O)OC)(c3cc4c(cc3OC)N(C)[C@H]3[C@@](O)(C(=O)OC)[C@H](OC(C)=O)[C@]5(CC)C=CCN6CC[C@]43[C@@H]65)C2)C1	3
CCC1=C[C@H]2CN(C1)C1=C(Cc3c([nH]c4ccccc34)[C@@](C(=O)OC)(c3cc4c(cc3OC)N(C)[C@H]3[C@@](O)(C(=O)OC)[C@H](OC(C)=O)[C@]5(CC)C=CCN6CC[C@]43[C@@H]65)C2)C(=O)N(C(C)C)C1=O	6
CCC1=C[C@H]2CN(C1)/C(C(=O)NCc1ccccc1)=C(/C(=O)OC)Cc1c([nH]c3ccccc13)[C@@](C(=O)OC)(c1cc3c(cc1OC)N(C)[C@H]1[C@@](O)(C(=O)OC)[C@H](OC(C)=O)[C@]4(CC)C=CCN5CC[C@]31[C@@H]54)C2	6

Origin of the recorded values: ChEMBL document CHEMBL3860099
